B1: EHEE_rd3_0053 (parent)
chain: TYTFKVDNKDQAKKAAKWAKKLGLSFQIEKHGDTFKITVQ

variants of: B1; test: folding stability dG (cDNA display proteolysis); higher = more stable; details: PBS, room temperature
Measured Attribute: folding stability dG (kcal/mol)
Numeric only. Scale: kcal/mol

| Variant Code | Endpoint Result |
| --- | --- |
| L22F | 2.08 |

If you can, please state the reported folding stability dG value of D7Q .
2.61

If you can, please state the reported folding stability dG value of A16Q .
2.16
